# Test system: Tetranychus urticae
# test.details: Acaricidal activity against Tetranychus urticae (two-spotted spider mite) infested kidney bean leaf assessed as mortality at 12.5 ppm after 5 days
# Assay type: functional
# condition.info: 120 h
property: mortality at 12.5 ppm (%)
Give just the numeric value; % need not be written.

* CCCCc1ccc(CNC(=O)c2c3c(nn2C)CCC3)cc1 | 0

Give a short answer stating reported mortality at 12.5 ppm for `Cn1nc2c(c1C(=O)NCc1ccc(CC(C)(C)C)cc1)CCC2` .
0

Give a short answer stating reported mortality at 12.5 ppm for `Cn1nc2c(c1C(=O)NCc1ccccc1)CCC2` .
0

Give a short answer stating reported mortality at 12.5 ppm for CC1CC(C)c2c1nn(C)c2C(=O)NCc1ccc(C(C)(C)C)cc1 (stereo not drawn) .
0

Give a short answer stating reported mortality at 12.5 ppm for `Cn1nc2c(c1C(=O)NCc1ccc(C(C)(C)C)cc1)CCC2` .
3
